- Test system: HOP-62 NSCLC
- test-description: NCI-60 one-dose screen, 48 h (100 = growth as untreated, 0 = no growth, -100 = all killed)
- condition-set: 10 µM unless noted
Compounds without any hit were thinned out: in the full panel of roughly 83,000, 20% have a hit.
// NB: equality with 80% counts as Not satisfied; only growth strictly below is Satisfied

compound: O=C(Nc1ccc(N2CCNCC2)cc1)c1[nH]ncc1Nc1cc(Oc2ccccc2)ncn1
measured-target: HOP-62 NSCLC
answer-label: Satisfied

compound: CCCCCCc1cc2cc(-c3csc(/C=C/c4ccccc4)n3)c(=O)oc2cc1O
measured-target: HOP-62 NSCLC
answer-label: Satisfied

compound: COc1cccc(C(=O)Cn2cc(/C=C(\C#N)S(=O)(=O)c3ccccc3)c3ccccc32)c1
measured-target: HOP-62 NSCLC
answer-label: Not satisfied

compound: O=S1(=O)N(Cc2ccccc2)[C@@H](Cc2ccccc2)[C@H](O)[C@H](O)[C@H](Cc2ccccc2)N1Cc1ccccc1
measured-target: HOP-62 NSCLC
answer-label: Satisfied

compound: CSc1nc2c(c(=O)[nH]1)N=C1c3ccccc3C(=O)C1C(c1ccc(F)cc1)N2 (centres undefined)
measured-target: HOP-62 NSCLC
answer-label: Satisfied

compound: CCN(CC)c1cc(C)c2cc(NC(=O)c3cccc(OC)c3)ccc2n1
measured-target: HOP-62 NSCLC
answer-label: Not satisfied

compound: O=c1oc2ccc(I)cc2c(=O)n1-c1ccc(Cl)cc1F
measured-target: HOP-62 NSCLC
answer-label: Satisfied

compound: COc1ccc(Nc2nc(N/N=C/c3ccc(O)cc3)nc(Nc3ccc([N+](=O)[O-])cc3)n2)cc1
measured-target: HOP-62 NSCLC
answer-label: Not satisfied

compound: O=C(Nc1ccsc1C(=O)NC1CCCCC1)c1ccc(F)cc1
measured-target: HOP-62 NSCLC
answer-label: Not satisfied

----------
- Test system: NCI-H522 lung
- test-description: NCI-60 one-dose screen, 48 h
- condition-set: 10 µM unless noted
About 83,000 compounds went through this panel and 20% of them were active in at least one assay; those are over-represented in the sample as a whole. Calls of active or inactive are those of the source. How the source made its calls: active means growth percent below 10; inactive means the rest.
Outcome codes: active, inactive

compound: COc1ccc(S(=O)(=O)N(Cc2ccc3c(n2)C=CC(C)(C)O3)C2CCC2)cc1OC
measured-target: NCI-H522 lung
answer-label: active

compound: C1=CC2(C=C1)OC21CCC2(C=CC3(C2)OC3C2CCCCC2)CC1 (stereo not given)
measured-target: NCI-H522 lung
answer-label: inactive

compound: Cn1c(/C=C(\C#N)c2cccc(C(F)(F)F)c2)nc2c(N3CCOCC3)nc(Cl)nc21
measured-target: NCI-H522 lung
answer-label: active

compound: O=C(Nc1ccc(N2CCNCC2)cc1)c1[nH]ncc1Nc1cc(C2CC2)ncn1
measured-target: NCI-H522 lung
answer-label: inactive

compound: COC(=O)/C(CCC=C(C)C)=C1\[C@@H](OC(C)=O)C[C@@]2(C)[C@H]1C[C@@H](O)[C@H]1[C@@]3(C)CC[C@H](NCc4ccccc4)[C@@H](C)[C@@H]3CC[C@@]12C
measured-target: NCI-H522 lung
answer-label: inactive

compound: CCOC(=O)C1(Cc2ccccc2)CCN(Cc2cccc(OC)c2O)CC1
measured-target: NCI-H522 lung
answer-label: inactive

compound: Clc1ncccc1Nc1ccc2nnc(-c3ccncc3)n2n1
measured-target: NCI-H522 lung
answer-label: active

compound: CCCCCCc1cc2cc(-c3csc(/C=C/c4ccccc4)n3)c(=O)oc2cc1O
measured-target: NCI-H522 lung
answer-label: active

compound: O=C1/C(=C\c2ccc[nH]2)c2ccccc2N1c1ccccc1
measured-target: NCI-H522 lung
answer-label: inactive

compound: O=C1/C(=C/c2ccc(O)cc2)COc2ccc(O)cc21
measured-target: NCI-H522 lung
answer-label: inactive

compound: C=C1C(=O)O[C@H]2[C@H]1CC/C(COC(=O)/C=C\C(=O)O)=C\CC[C@@]1(C)O[C@@H]21
measured-target: NCI-H522 lung
answer-label: inactive

compound: O=C(CN1C(=O)/C(=C\c2ccc(Cl)cc2)SC1=S)Nc1ncc(Cc2ccc(Cl)cc2)s1
measured-target: NCI-H522 lung
answer-label: inactive

compound: O=C(Nc1ncc(Cc2cccc(C(F)(F)F)c2)s1)C1COc2ccccc2O1 (stereo not given)
measured-target: NCI-H522 lung
answer-label: inactive

compound: O=S(=O)(c1ccc(NC(=S)NC23CC4CC(CC(C4)C2)C3)cc1)N1CCCCC1
measured-target: NCI-H522 lung
answer-label: inactive

compound: Clc1ccc(COc2ccc(Nc3ncnc4onc(-c5ccccc5)c34)cc2)cc1
measured-target: NCI-H522 lung
answer-label: inactive

compound: O=C(Nc1ccc(-c2nc3cc4ccccc4cc3[nH]2)cc1)c1cccc(Br)c1
measured-target: NCI-H522 lung
answer-label: inactive

compound: O=C(/C=C/c1ccccc1)c1ccc(Nc2nc(NCCO)nc(Nc3ccc(Cl)cc3)n2)cc1
measured-target: NCI-H522 lung
answer-label: inactive

compound: NC(CCc1nc2ccccc2c(=O)[nH]1)C(=O)O (stereo not given)
measured-target: NCI-H522 lung
answer-label: inactive

compound: NCCOc1ncccc1/C=C1\c2ccccc2-c2ccc(F)cc21
measured-target: NCI-H522 lung
answer-label: inactive

compound: CSc1nc2c(c(=O)[nH]1)N=C1c3ccccc3C(=O)C1C(c1ccc(F)cc1)N2 (stereo not given)
measured-target: NCI-H522 lung
answer-label: inactive

----------
- Test system: DU-145 prostate
- test-description: NCI-60 one-dose screen, 48 h (100 = growth as untreated, 0 = no growth, -100 = all killed)
- condition-set: 10 µM unless noted
The panel holds about 83,000 compounds, 20% with a hit somewhere; the sample as a whole holds those more often.

molecule: CCOC(=O)C1=C(C)N=c2s/c(=C\c3ccccc3O)c(=O)n2C1c1ccc(OC)c2ccccc12 (centres undefined)
measurement-unit: %
growth: 43.5

molecule: NC(CCc1nc2ccccc2c(=O)[nH]1)C(=O)O (centres undefined)
measurement-unit: %
growth: 120

molecule: O=C(c1nc2ccccc2[nH]1)C1C(c2ccc([N+](=O)[O-])cc2)C2CC3CCCCC3N2[C@@]12C(=O)Nc1cc(Cl)ccc12 (some centres undefined)
measurement-unit: %
growth: 51.3

molecule: COc1cc(/C=C2\CCC/C(=C\c3cc(CN4CCOCC4)c(O)c(OC)c3)C2=O)cc(CN2CCOCC2)c1O
measurement-unit: %
growth: 14.9

molecule: COc1cc(NC(=O)CCSc2nc3ccccc3c(=O)n2Cc2ccccc2)cc(OC)c1OC
measurement-unit: %
growth: 97.5

molecule: N#C/C(=C1\SC(=O)CN1c1ccccc1)c1nc2ccccc2s1
measurement-unit: %
growth: 99.7

molecule: O=C(CCc1nnc2sc(Cc3ccccc3Cl)nn12)c1nc2ncccc2[nH]1
measurement-unit: %
growth: 101

molecule: COc1ccc(/C(C#N)=C/c2nc3c(N4CCOCC4)nc(Cl)nc3n2C)cc1OC
measurement-unit: %
growth: 8.07

molecule: O=c1oc2ccc(-c3ccc(F)cc3F)cc2c(=O)n1-c1cccc(C(F)(F)F)c1
measurement-unit: %
growth: 20.1

----------
- System: SK-MEL-5 melanoma
- test-description: NCI-60 one-dose screen, 48 h (100 = growth as untreated, 0 = no growth, -100 = all killed)
- condition-set: 10 µM unless noted
The panel holds about 83,000 compounds, 20% with a hit somewhere; the sample as a whole holds those more often.
Recorded growth for the following compounds

compound: CC(C)CCNCC(O)Cn1c2ccccc2c2ccccc21 (stereo not given)
measured-target: SK-MEL-5 melanoma
growth (%): -20.6

compound: COC(=O)[C@H](NC(=O)C1(C)CCC[C@]2(C)[C@H]3C[C@H]4C(C(C)C)=C[C@]3(CC[C@@H]12)[C@@H]1C(=O)CCC(=O)[C@@H]14)C(C)C (stereo not given in full)
measured-target: SK-MEL-5 melanoma
growth (%): 101

compound: CC[C@@H](C)[C@H](NC(=O)Cn1cc(CNC(=O)[C@@H](NC(=O)OCc2ccccc2)C(C)C)nn1)C(=O)O
measured-target: SK-MEL-5 melanoma
growth (%): 102

compound: Nc1ncnc(N)c1NC(=O)c1ccc(OCc2ccccc2)cc1
measured-target: SK-MEL-5 melanoma
growth (%): 102

compound: CCN1C(=O)N(CC)C2Nn3c(s/c(=C\c4ccccc4F)c3=O)=NC21 (stereo not given)
measured-target: SK-MEL-5 melanoma
growth (%): 33.9

compound: CC(=O)n1cc(-c2c[nH]c3ccccc23)c(-c2ccc(Cl)cc2)n1
measured-target: SK-MEL-5 melanoma
growth (%): 78.8

compound: COc1ccc(OC)c(N(CCN2C(=O)c3ccccc3C2=O)C(=O)CCl)c1
measured-target: SK-MEL-5 melanoma
growth (%): 94

compound: COc1cc(/C(C#N)=C/c2nc3c(N4CCOCC4)nc(Cl)nc3n2C)cc(OC)c1OC
measured-target: SK-MEL-5 melanoma
growth (%): -38.3

compound: COc1ccc(Cn2c(Br)c3c(c2Br)-c2nc(NC(=O)c4ccc(OC)cc4)sc2CC3)cc1
measured-target: SK-MEL-5 melanoma
growth (%): 62.1

compound: COc1cc(/C=C2\CN(C)C/C(=C\c3cc(CN4CCOCC4)c(O)c(OC)c3)C2=O)cc(CN2CCOCC2)c1O
measured-target: SK-MEL-5 melanoma
growth (%): 72.3

compound: C#CCn1cc(C=C2C(=O)NC(=O)NC2=O)c2cc(Cl)ccc21
measured-target: SK-MEL-5 melanoma
growth (%): 81.9

compound: O=C(Cn1cc(COc2ncnc3c2cnn3-c2ccccc2)nn1)Nc1cccc2ccccc12
measured-target: SK-MEL-5 melanoma
growth (%): 92.5

compound: COC(=O)C1=C(C)NC(C)=C(C(=O)OC)C(N2C(=O)CCC2=O)C1 (stereo not given)
measured-target: SK-MEL-5 melanoma
growth (%): 102

compound: COC(=O)/C(=C\c1c(C)[nH]c2ccccc12)S(=O)(=O)c1ccccc1
measured-target: SK-MEL-5 melanoma
growth (%): 34.1

compound: CN(CCc1ccccc1)C(=S)N(C(=O)c1ccc([N+](=O)[O-])cc1)c1ccc(Cl)cc1
measured-target: SK-MEL-5 melanoma
growth (%): 98.3

compound: c1ccc(CNc2nc(Nc3ccccc3)nc3ccccc23)cc1
measured-target: SK-MEL-5 melanoma
growth (%): 54.8

compound: COc1cccc(C2=NN3C(C2)c2ccccc2OC3c2ccc(/C=C3\SC(=O)NC3=O)cc2)c1 (stereo not given)
measured-target: SK-MEL-5 melanoma
growth (%): 91.8

compound: Cc1sc2ncnc(Sc3nc4ccccc4[nH]3)c2c1C
measured-target: SK-MEL-5 melanoma
growth (%): -96.9

compound: COc1cc(C(C)n2cc(-c3ccccc3)nn2)ccc1OC1CCCCC1 (stereo not given)
measured-target: SK-MEL-5 melanoma
growth (%): 29.9

compound: COc1c(B(O)O)cccc1-c1nc2ccc3[nH]ncc3c2c2c1C1CCC2C1 (stereo not given)
measured-target: SK-MEL-5 melanoma
growth (%): 75.7
